Test system: PSN1 (KRAS^G12R)
ASSAY_PROCEDURE: 3 day proliferation assay, PSN1
Format: cell-based
PROTOCOL_CONDITIONS: Homo sapiens, 72 h, read-out: IC50 cell growth
pIC50: −log10 of the molar value.
MEASUREMENT_NAME: pIC50

// pIC50 lookup, key: CNC[C@@H](NC(=O)c1ccc(-c2nc([C@H]3CC[C@H](O)[C@@H](F)C3)cnc2N)cc1F)c1cc(F)cc(Br)c1 [Compound B]
> 6.00

----------
ASSAY_PROCEDURE: Clinical PK of Compound A tablets, once daily, fasted subjects
Type: in vivo, human
PROTOCOL_CONDITIONS: human, plasma, oral; day 1 of dosing, 100 mg; read-out: Mean plasma exposure over the dose interval of 24 hours (AUCtau)
MEASUREMENT_NAME: AUC (ng·h/mL)
Numeric answer only, unit ng·h/mL assumed.

// AUC lookup, key: Cc1ccc(NC(=O)c2ccnc(C(F)(F)F)c2)cc1-c1cc(OCCO)nc(N2CCOCC2)c1 [Compound A]
5680
